Test system: U2OS
assayProcedure: Multiplex assay against U2OS
Assay type: toxicity, cell-based
testContext: human, 48 h, 1 µM, compound concentration 1 uM, replicate 2
Non-standard residues stand in square brackets, D forms with d. Residues, ends and D or L forms follow the SMILES beside them.
experimentalEndpoint: Total Cell Count

>  <compound>
O=C(NCCNCC(O)COc1ccc(O)cc1)N1CCOCC1.O=C(NCCNCC(O)COc1ccc(O)cc1)N1CCOCC1.O=C(O)/C=C/C(=O)O (stereo unspecified) [XAMOTEROL FUMARATE]

>  <assaySystem>
U2OS

>  <measured>
171

$$$$
>  <compound>
CC(C)C[C@H](CO)Nc1nc(S[C@@H](C)c2ccccc2)nc2nc(N)sc12

>  <assaySystem>
U2OS

>  <measured>
181

$$$$
>  <compound>
COc1cc2nc(N3CCN(C(=O)c4ccco4)CC3)nc(N)c2cc1OC.Cl [PRAZOSIN HYDROCHLORIDE]

>  <assaySystem>
U2OS

>  <measured>
266

$$$$
>  <compound>
Cc1ccc(OCC(O)C(C)NC(C)C)c2c1CCC2.Cl (stereo unspecified)

>  <assaySystem>
U2OS

>  <measured>
202

$$$$
>  <compound>
CCCCC[C@H](O)/C=C/[C@H]1[C@H](O)CC(=O)[C@@H]1CCCCCCC(=O)O

>  <assaySystem>
U2OS

>  <measured>
236

$$$$
>  <compound>
Nc1nc(-c2ccco2)c2cnn(Cc3ccccc3F)c2n1

>  <assaySystem>
U2OS

>  <measured>
141

$$$$
>  <compound>
Cc1cc(NC(=O)NCCN2CCC(O)(Cc3ccccc3)CC2)c2ccccc2n1

>  <assaySystem>
U2OS

>  <measured>
233

$$$$
>  <compound>
CN1CCC(C(=O)c2cccc(NC(=O)c3c(F)cc(F)cc3F)n2)CC1

>  <assaySystem>
U2OS

>  <measured>
149

$$$$
>  <compound>
C[C@@H]1CC(=O)Nc2cccc(-c3ccc4c(c3)c(-c3cnn(C)c3)nn4C)c2N1

>  <assaySystem>
U2OS

>  <measured>
224

$$$$
>  <compound>
COc1cc(OC2CCN(C(C)=O)CC2)ccc1C(=O)N1CCC(N2C(=O)OCc3ccccc32)CC1

>  <assaySystem>
U2OS

>  <measured>
213

$$$$
>  <compound>
COc1ccc2c(c1OCc1ccccc1)C[C@@H](C(=O)O)N(C(=O)C(c1ccccc1)c1ccccc1)C2

>  <assaySystem>
U2OS

>  <measured>
184

$$$$
>  <compound>
COc1cc(C(=O)N2CC[C@@H](O)[C@@H](N)C2)cc2nc(-c3cc4ccccc4n3CC3CC3)n(C)c12.Cl

>  <assaySystem>
U2OS

>  <measured>
149

$$$$
>  <compound>
COc1ccc2[nH]c(I)c(CCNC(C)=O)c2c1

>  <assaySystem>
U2OS

>  <measured>
284

$$$$
>  <compound>
Cc1sc2c(c1C)C(c1ccc(Cl)cc1)=N[C@H](CC(=O)OC(C)(C)C)c1nnc(C)n1-2

>  <assaySystem>
U2OS

>  <measured>
228

$$$$
>  <compound>
Cn1cc(C(=O)OCC2CCN(CCNS(C)(=O)=O)CC2)c2ccccc21

>  <assaySystem>
U2OS

>  <measured>
182

$$$$
>  <compound>
CN1CCN2c3ccccc3Cc3ccccc3C2C1.Cl (stereo unspecified) [MIANSERIN HYDROCHLORIDE]

>  <assaySystem>
U2OS

>  <measured>
206

$$$$
>  <compound>
COCCCN1CCC(NC(=O)c2cc(Cl)c(N)c3c2OCC3)CC1 [PRUCALOPRIDE]

>  <assaySystem>
U2OS

>  <measured>
199

$$$$
>  <compound>
CSc1nc(NC2CCCC2)c([N+](=O)[O-])c(NC2CCCC2)n1

>  <assaySystem>
U2OS

>  <measured>
185

$$$$
>  <compound>
Cc1nn(C)c2nc(NNC(=O)Nc3cc(Cl)nc(Cl)c3)cc(C(C)C)c12

>  <assaySystem>
U2OS

>  <measured>
247

$$$$
>  <compound>
CC(C)C[C@@H]1NC(=O)[C@@H](C(C)C)NC(=O)[C@@H]2CCCN2C(=O)[C@@H](CC(=O)O)NC(=O)[C@@H](Cc2c[nH]c3ccccc23)NC1=O [BQ-123] (cyclo(L[dW][dD]P[dV]))

>  <assaySystem>
U2OS

>  <measured>
226

$$$$
>  <compound>
Cc1cc(-c2ccc3c(c2)CC[C@H]3N2CC3(CCN(C(=O)Cc4cn5cc(C)sc5n4)CC3)C2)ncn1

>  <assaySystem>
U2OS

>  <measured>
184

$$$$
>  <compound>
COc1c(Nc2ccc(S(C)(=O)=O)nc2C)ncnc1OC1CCN(C(=O)OC(C)C)CC1

>  <assaySystem>
U2OS

>  <measured>
185

$$$$
>  <compound>
Cc1cc(O)c(-c2ccc([C@@H](C)CN(C)C)cc2)c2c1[nH]c(=O)c1sccc12

>  <assaySystem>
U2OS

>  <measured>
120

$$$$
>  <compound>
Cl.Cl.OCCOCCN1CCN(C(c2ccccc2)c2ccc(Cl)cc2)CC1 (stereo unspecified) [HYDROXYZINE HYDROCHLORIDE]

>  <assaySystem>
U2OS

>  <measured>
230

$$$$
>  <compound>
CCC(=O)OCC(=O)[C@@]1(OC(=O)CC)[C@@H](C)C[C@H]2[C@@H]3CCC4=CC(=O)C=C[C@]4(C)[C@@]3(Cl)[C@@H](O)C[C@@]21C [BECLOMETHASONE DIPROPIONATE]

>  <assaySystem>
U2OS

>  <measured>
152

$$$$
>  <compound>
C[C@H](NC(=O)CNC(=O)c1cccc(Cl)c1)c1ccccc1

>  <assaySystem>
U2OS

>  <measured>
205

$$$$
>  <compound>
CCCCCCNC(=O)Nc1ccc(S(=O)(=O)Nc2ccc(CCNC[C@H](O)COc3ccc(O)cc3)cc2)cc1

>  <assaySystem>
U2OS

>  <measured>
188

$$$$
>  <compound>
O=C(O)CCC/C=C\CC1C(O)CC(O)C1/C=C/C(O)COc1cccc(Cl)c1 (stereo unspecified)

>  <assaySystem>
U2OS

>  <measured>
229

$$$$
>  <compound>
CN(C)C(=O)Cn1cc(-c2ccc(-c3nnc4ccccn34)cc2)cn1

>  <assaySystem>
U2OS

>  <measured>
158

$$$$
>  <compound>
Nc1nc(CC(=O)Nc2ccc(CCNC[C@H](O)c3ccccc3)cc2)cs1

>  <assaySystem>
U2OS

>  <measured>
179

$$$$
>  <compound>
Cc1c(Cc2ccc3ccccc3n2)c2cc(F)ccc2n1CC(=O)O

>  <assaySystem>
U2OS

>  <measured>
168

$$$$
>  <compound>
CC(C)(C)c1ccc(CSc2cnn(C(C)(C)C)c(=O)c2Cl)cc1

>  <assaySystem>
U2OS

>  <measured>
212

$$$$
>  <compound>
Cc1cc(=O)n(C)c2cc(N3C(=O)CC[C@H](NS(=O)(=O)CC(C)C)[C@H]3c3ccc(Cl)cc3)ccc12

>  <assaySystem>
U2OS

>  <measured>
199

$$$$
>  <compound>
COC(c1ccccc1)(c1ccccc1)[C@H](Oc1nc(C)cc(C)n1)C(=O)O

>  <assaySystem>
U2OS

>  <measured>
151

$$$$
>  <compound>
O=c1nc2[nH]c3ccccc3nc-2c(=O)[nH]1

>  <assaySystem>
U2OS

>  <measured>
207

$$$$
>  <compound>
CC(C)(O)C(=O)N1CCN(c2ccc(C(F)(F)F)c(C3=C(c4c[nH]c5ccccc45)C(=O)NC3=O)c2)CC1

>  <assaySystem>
U2OS

>  <measured>
233

$$$$

* * *

Test system: Fibroblast
assayProcedure: Multiplex assay against human fibroblast
Assay type: toxicity, cell-based
testContext: 48 h, 10 µM, compound concentration 10 uM, replicate 2

>  <compound>
CCn1c(-c2nc3cc(C(=O)N4CCCC(N)C4)ccc3n2C)cc2ccccc21.Cl (stereo not drawn)

>  <Population Fragmented Nuclei (%)>
33

$$$$
>  <compound>
COc1cc(C(=O)N2CC[C@@H](O)[C@@H](N)C2)cc2nc(-c3cc4ccccc4n3CC3CC3)n(C)c12.Cl

>  <Population Fragmented Nuclei (%)>
32

$$$$
>  <compound>
COc1cc(Nc2ncc3c(n2)-c2ccc(Cl)cc2C(c2c(F)cccc2OC)=NC3)ccc1C(=O)O [ALISERTIB]

>  <Population Fragmented Nuclei (%)>
37

$$$$
>  <compound>
Cc1ccc(OCC(O)C(C)NC(C)C)c2c1CCC2.Cl (stereo not drawn)

>  <Population Fragmented Nuclei (%)>
39

$$$$
>  <compound>
OCCCNc1cc(-c2ccnc(Nc3cccc(Cl)c3)n2)ccn1

>  <Population Fragmented Nuclei (%)>
58

$$$$
>  <compound>
Cl.Cl.OCCOCCN1CCN(C(c2ccccc2)c2ccc(Cl)cc2)CC1 (stereo not drawn) [HYDROXYZINE HYDROCHLORIDE]

>  <Population Fragmented Nuclei (%)>
36

$$$$
>  <compound>
O=C(Nc1cc(-c2ccccc2)nn1-c1ccccc1F)c1ccc([N+](=O)[O-])cc1

>  <Population Fragmented Nuclei (%)>
31

$$$$
>  <compound>
Nc1nc(CC(=O)Nc2ccc(CCNC[C@H](O)c3ccccc3)cc2)cs1 [MIRABEGRON]

>  <Population Fragmented Nuclei (%)>
39

$$$$
>  <compound>
Cc1cc(-c2ccc3c(c2)CC[C@H]3N2CC3(CCN(C(=O)Cc4cn5cc(C)sc5n4)CC3)C2)ncn1 [PF-5190457]

>  <Population Fragmented Nuclei (%)>
30

$$$$
>  <compound>
Cn1cc(C(=O)OCC2CCN(CCNS(C)(=O)=O)CC2)c2ccccc21

>  <Population Fragmented Nuclei (%)>
40

$$$$
>  <compound>
CN1C[C@H](C(=O)N[C@]2(C)O[C@@]3(O)[C@@H]4CCCN4C(=O)[C@H](Cc4ccccc4)N3C2=O)C[C@@H]2c3cccc4[nH]cc(c34)C[C@H]21.CS(=O)(=O)O [DIHYDROERGOTAMINE MESYLATE]

>  <Population Fragmented Nuclei (%)>
44

$$$$
>  <compound>
CN(C)C(=O)Cn1cc(-c2ccc(-c3nnc4ccccn34)cc2)cn1

>  <Population Fragmented Nuclei (%)>
44

$$$$
>  <compound>
C=CCN1C[C@H](C(=O)N(CCCN(C)C)C(=O)NCC)C[C@@H]2c3cccc4[nH]cc(c34)C[C@H]21 [CABERGOLINE]

>  <Population Fragmented Nuclei (%)>
52

$$$$
>  <compound>
COc1ccc2c(c1OCc1ccccc1)C[C@@H](C(=O)O)N(C(=O)C(c1ccccc1)c1ccccc1)C2 [OLODANRIGAN]

>  <Population Fragmented Nuclei (%)>
29

$$$$
>  <compound>
CCc1nn2c(C)cc(C)nc2c1Cc1ccc(-c2nnc(C3CCNCC3)o2)cc1

>  <Population Fragmented Nuclei (%)>
45

$$$$
>  <compound>
N[C@](CC1c2ccccc2Oc2ccccc21)(C(=O)O)[C@H]1C[C@@H]1C(=O)O

>  <Population Fragmented Nuclei (%)>
27

$$$$
>  <compound>
Cc1nn(C)c2nc(NNC(=O)Nc3cc(Cl)nc(Cl)c3)cc(C(C)C)c12

>  <Population Fragmented Nuclei (%)>
38

$$$$
>  <compound>
COC(c1ccccc1)(c1ccccc1)[C@H](Oc1nc(C)cc(C)n1)C(=O)O [AMBRISENTAN]

>  <Population Fragmented Nuclei (%)>
50

$$$$
>  <compound>
CCCCCCNC(=O)Nc1ccc(S(=O)(=O)Nc2ccc(CCNC[C@H](O)COc3ccc(O)cc3)cc2)cc1 [L-755507]

>  <Population Fragmented Nuclei (%)>
42

$$$$
>  <compound>
CN1CCN(c2ccc(Nc3c4ccccc4nc4ccccc34)cc2)CC1.Cl.Cl.O

>  <Population Fragmented Nuclei (%)>
88

$$$$
>  <compound>
Cc1cc(=O)n(C)c2cc(N3C(=O)CC[C@H](NS(=O)(=O)CC(C)C)[C@H]3c3ccc(Cl)cc3)ccc12

>  <Population Fragmented Nuclei (%)>
34

$$$$
>  <compound>
COc1cc2nc(N3CCN(C(=O)c4ccco4)CC3)nc(N)c2cc1OC.Cl [PRAZOSIN HYDROCHLORIDE]

>  <Population Fragmented Nuclei (%)>
42

$$$$
>  <compound>
C[C@H](NC(=O)CNC(=O)c1cccc(Cl)c1)c1ccccc1

>  <Population Fragmented Nuclei (%)>
38

$$$$
>  <compound>
COc1cc2nc(N3CCN(C(=O)COc4c(OC)cccc4C(C)C)CC3)nc(N)c2cc1OC.Cl.Cl

>  <Population Fragmented Nuclei (%)>
33

$$$$
>  <compound>
CC(C)C[C@H](CO)Nc1nc(S[C@@H](C)c2ccccc2)nc2nc(N)sc12 [AZD-8797]

>  <Population Fragmented Nuclei (%)>
45

$$$$
>  <compound>
Nc1nc(-c2ccco2)c2cnn(Cc3ccccc3F)c2n1

>  <Population Fragmented Nuclei (%)>
50

$$$$
>  <compound>
O=C(NCCNCC(O)COc1ccc(O)cc1)N1CCOCC1.O=C(NCCNCC(O)COc1ccc(O)cc1)N1CCOCC1.O=C(O)/C=C/C(=O)O (stereo not drawn) [XAMOTEROL FUMARATE]

>  <Population Fragmented Nuclei (%)>
33

$$$$
>  <compound>
O=C(O)CCC/C=C\CC1C(O)CC(O)C1/C=C/C(O)COc1cccc(Cl)c1 (stereo not drawn) [CLOPROSTENOL]

>  <Population Fragmented Nuclei (%)>
41

$$$$
>  <compound>
Cc1cc(O)c(-c2ccc([C@@H](C)CN(C)C)cc2)c2c1[nH]c(=O)c1sccc12

>  <Population Fragmented Nuclei (%)>
39

$$$$
>  <compound>
CSc1nc(NC2CCCC2)c([N+](=O)[O-])c(NC2CCCC2)n1 [GS-39783]

>  <Population Fragmented Nuclei (%)>
40

$$$$
>  <compound>
CC(C)(C)c1ccc(CSc2cnn(C(C)(C)C)c(=O)c2Cl)cc1 [PYRIDABEN]

>  <Population Fragmented Nuclei (%)>
36

$$$$
>  <compound>
COc1cc(OC2CCN(C(C)=O)CC2)ccc1C(=O)N1CCC(N2C(=O)OCc3ccccc32)CC1

>  <Population Fragmented Nuclei (%)>
36

$$$$
>  <compound>
CCC(=O)OCC(=O)[C@@]1(OC(=O)CC)[C@@H](C)C[C@H]2[C@@H]3CCC4=CC(=O)C=C[C@]4(C)[C@@]3(Cl)[C@@H](O)C[C@@]21C [BECLOMETHASONE DIPROPIONATE]

>  <Population Fragmented Nuclei (%)>
33

$$$$
